Measured MIC values are reported for all entries that follow.
# Tested on: SA-138 (clinical isolate)
# METHOD_NOTES: MIC broth microdilution, SA-138
# Type: cell-based, Staphylococcus aureus
# CONDITIONS_USED: Table 3
MEASURED_PARAMETER: MIC (µM)

1) CCCCCCCCCCCCCCCCn1cc[n+](Cc2cccc(OC)c2)c1C.[Br-] [Compound 17]; 3.13
2) CCCCCCCCCCCCCCCCn1cc[n+](CCO)c1C.[Br-] [Compound 11]; 1.56
3) CCCCCCCCCCCCCCCCn1c(C)[n+](Cc2ccccc2)c2ccccc21.[Br-] [Compound 25]; 6.25
4) CCCCCCCCCCCCCCCCn1cc[n+](Cc2cccc(F)c2)c1C.[Br-] [Compound 18]; 3.13

---

# System: vancomycin-resistant Enterococcus faecium (VRE strain ATCC 700221)
# METHOD_NOTES: MIC broth microdilution, VRE 700221
# Type: cell-based
# CONDITIONS_USED: Table 1A
Marks after values point to notes of the source that are not given here.
MEASURED_PARAMETER: MIC E. faecium VRE 700221

1) CCCCCCCCCCCCCCCCn1cc[n+](Cc2ccc(C(C)(C)C)cc2)c1C.[Br-] [Compound 13]; 4.69^a
2) CCCCCCCCCCCCCCCCn1cc[n+](Cc2cc(C(F)(F)F)cc(C(F)(F)F)c2)c1C.[Br-] [Compound 19]; 9.38^a
3) CCCCCCCCCCCCCCCCn1cc[n+](Cc2ccc(Br)cc2)c1C.[Br-] [Compound 14]; 4.69^a
4) CCCCCCCCCCCC[N+](C)(C)CC[N+](C)(C)CC[N+](C)(C)CCCCCCCCCCCC [QAC-10, reference compound]; 2.35^a
5) Cc1nccn1Cc1ccccc1 [Compound 22]; > 100 µM
6) C=CC[n+]1ccn(CCCCCCCCCCCCCCCC)c1C.[Br-] [Compound 10]; 2.35^a
7) CCCCCCCCCCCCCCCCn1ccnc1C [Compound 23, 1-hexadecyl-2-methyl-1H-imidazole]; 2.35^a
8) CCCCCCCCCCCCCCCCn1cc[n+](Cc2ccccc2C[n+]2ccn(CCCCCCCCCCCCCCCC)c2C)c1C [AB-3-35]; > 100 µM
9) CCCCCCCCCCCCCCCCn1cc[n+](CCCC)c1C.[Br-] [Compound 9]; 1.17^a

---

Recorded MIC A. bau. 1794 by entry
# Test system: Acinetobacter baumannii (ATCC 1794)
# METHOD_NOTES: MIC broth microdilution, A. baumannii 1794
# Type: cell-based
# CONDITIONS_USED: Table 4
MEASURED_PARAMETER: MIC A. bau. 1794 (µM)

1) CCCCCCCCCCCC[N+](C)(C)CC[N+](C)(C)CC[N+](C)(C)CCCCCCCCCCCC [QAC-10, reference compound]; 6.25
2) CCCCCCCCCCCCCCCCn1cc[n+](CCO)c1C.[Br-]; 6.25

---

# System: MRSA-2 biofilms
# METHOD_NOTES: Calgary Biofilm Device assay (MBC/MBEC), MRSA-2
# Assay type: cell-based, Staphylococcus aureus
# CONDITIONS_USED: Table 2A; CBD assay
# Description: The lid of the Calgary device was then removed, washed and transferred to another 96-well plate containing 2-fold serial dilutions of the test compounds (the “challenge plate”). The total volume of media with compound in each well in the challenge plate is 150 μL. […] The lid was then removed from the challenge plate and MBC/MBEC values were determined using different final assays. […] The MBC values were determined as the concentration giving a lack of visible bacterial growth (i.e., turbidity). […]
Marks after values point to notes of the source that are not given here.
The following compounds are listed with their measured MRSA-2 MBC values.
MEASURED_PARAMETER: MRSA-2 MBC

1) CCCCCCCCCCCCCCCCn1cc(-c2ccccc2)[n+](C)n1.[I-] [Compound 30]; 31.3^b/31.3 μM
2) CCCCCCCCCCCCCCCCn1cc[n+](Cc2cccc(F)c2)c1C.[Br-] [Compound 18]; 93.8^a/93.8^a μM
3) CCCCCCCCCCCCCCCCn1cc[n+](Cc2ccc(F)cc2C(F)(F)F)c1C.[Br-] [Compound 16]; 62.5/62.5 μM
